Reference for the values: patent US7910708

For each entry below, report its EC50 [nM] human IL-13 (IL-13-induced eotaxin release from human lung fibroblasts) value.
experimental-target: recombinant human IL-13 (human, UniProt P35225 35-146, limits assumed)
Sequence (P35225 35-146 limits assumed): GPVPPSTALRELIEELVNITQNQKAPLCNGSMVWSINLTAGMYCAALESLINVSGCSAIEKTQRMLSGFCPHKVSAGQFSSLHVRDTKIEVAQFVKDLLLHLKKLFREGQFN
test-details: cell-based or functional assay
Reply with just the number (in nM).

Ask | Requested field: EC50 [nM] human IL-13 (IL-13-induced eotaxin release from human lung fibroblasts). Item: 01471/G6 antibody (human IgG1, kappa) (antibody, V domains shown) VH: EVQLVESGGGVVQPGRSLRLSCAASGFTFSNYGMHWVRQAPGKGLEWVAIIWYDGSNKYYADSVKGRFTISRDNSKNTLYLQMNSLRAEDTAVYYCVKGSGDIPFDYWGQGTLVT VL: EIVLTQSPATLSSSPGERATLSCRASQSVSSYLAWYQQKPGQAPRLLIYDASNRATGIPARFSGSGSGTDFTLTISSLEPEDFAVYYCHQRSHWPPIFTFGPGT
Reply | 1.23

Ask | Requested field: EC50 [nM] human IL-13 (IL-13-induced eotaxin release from human lung fibroblasts). Item: 03161/H2 antibody (human IgG1, kappa) (antibody, V domains shown) VH: EVQLVESGGGVVQPGRSLRLSCAASGFTFSNYGMHWVRQAPGKGLEWVAIIWYDGSNKYYADSVKGRFTISRDNSKNTLYLQMNSLRAEDTAVYYCVKGSGDIPFDYWGQGTLVT VL: EIVLTQSPATLSSSPGERATLSCRASQSVSSYLAWYQQKPGQAPRLLIYDASNRATGTPARFSGSGSGTDFTLTISSLEPEDFAVYYCHQRSHWPPIFTFGPGT
Reply | 0.95

Ask | Requested field: EC50 [nM] human IL-13 (IL-13-induced eotaxin release from human lung fibroblasts). Item: 01771/E10 antibody (human IgG1, kappa) (antibody, V domains shown) VH: QVQLVQSGGGVVQPGRSLRLSCAASGFTFSSYGMHWVRQAPGKGLEWVAIIWYDGSNKYYADSVKGRFTISRDNSKNTLYLQMNSLRAEDTAVYYCARLWFGDLDAFDIWGQGTMVT VL: EIVLTQSPATLSLSPGERATLSCRASQSVSSYLAWYQQKPGQAPRLLIYDASNRATGIPARFSGSGSGTDFTLTISSLEPEDFAVYYCHQRSSWPPIFTFGPGT
Reply | 1.71
